# Substrate: O=C(O)c1cc(C(=O)O)oc(=O)c1
# Method summary: purified protein
# Type: biochemical, Sphingobium sp. SYK-6
# Assay setup: 50 mM BICINE pH 8.25, 30 °C
Mark true (1) only when Km stays strictly below 90 µM. Values equal to the cut-off are false (0).

# count of solved cases: 4
LigI (Sphingobium sp. SYK-6; H178C) (protein) TNDERILSWNETPSKPRYTPPPGAIDAHCHVFGPMAQFPFSPKAKYLPRDAGPDMLFALRDHLGFARNVIVQASCHGTDNAATLDAIARAQGKARGIAVVDPAIDEAELAALHEGGMRGIRFNFLKRLVDDAPKDKFLEVAGRLPAGWHVVIYFEADILEELRPFMDAIPVPIVIDCMGRPDVRQGPDGADMKAFRRLLDSREDIWFKATCPDRLDPAGPPWDDFARSVAPLVADYADRVIWGTDWPHPNMQDAIPDDGLVVDMIPRIAPTPELQHKMLVTNPMRLYWSEEM; true (1)
LigI (Sphingobium sp. SYK-6; H29N) (protein) TNDERILSWNETPSKPRYTPPPGAIDANCHVFGPMAQFPFSPKAKYLPRDAGPDMLFALRDHLGFARNVIVQASCHGTDNAATLDAIARAQGKARGIAVVDPAIDEAELAALHEGGMRGIRFNFLKRLVDDAPKDKFLEVAGRLPAGWHVVIYFEADILEELRPFMDAIPVPIVIDHMGRPDVRQGPDGADMKAFRRLLDSREDIWFKATCPDRLDPAGPPWDDFARSVAPLVADYADRVIWGTDWPHPNMQDAIPDDGLVVDMIPRIAPTPELQHKMLVTNPMRLYWSEEM; false (0)
LigI (Sphingobium sp. SYK-6; R128M) (protein) TNDERILSWNETPSKPRYTPPPGAIDAHCHVFGPMAQFPFSPKAKYLPRDAGPDMLFALRDHLGFARNVIVQASCHGTDNAATLDAIARAQGKARGIAVVDPAIDEAELAALHEGGMRGIRFNFLKMLVDDAPKDKFLEVAGRLPAGWHVVIYFEADILEELRPFMDAIPVPIVIDHMGRPDVRQGPDGADMKAFRRLLDSREDIWFKATCPDRLDPAGPPWDDFARSVAPLVADYADRVIWGTDWPHPNMQDAIPDDGLVVDMIPRIAPTPELQHKMLVTNPMRLYWSEEM; false (0)
LigI (Sphingobium sp. SYK-6; D246N) (protein) TNDERILSWNETPSKPRYTPPPGAIDAHCHVFGPMAQFPFSPKAKYLPRDAGPDMLFALRDHLGFARNVIVQASCHGTDNAATLDAIARAQGKARGIAVVDPAIDEAELAALHEGGMRGIRFNFLKRLVDDAPKDKFLEVAGRLPAGWHVVIYFEADILEELRPFMDAIPVPIVIDHMGRPDVRQGPDGADMKAFRRLLDSREDIWFKATCPDRLDPAGPPWDDFARSVAPLVADYADRVIWGTNWPHPNMQDAIPDDGLVVDMIPRIAPTPELQHKMLVTNPMRLYWSEEM; true (1)

Please find the next protein below.
Just wondering, is Km of LigI (Sphingobium sp. SYK-6; Y154F) (protein) TNDERILSWNETPSKPRYTPPPGAIDAHCHVFGPMAQFPFSPKAKYLPRDAGPDMLFALRDHLGFARNVIVQASCHGTDNAATLDAIARAQGKARGIAVVDPAIDEAELAALHEGGMRGIRFNFLKRLVDDAPKDKFLEVAGRLPAGWHVVIFFEADILEELRPFMDAIPVPIVIDHMGRPDVRQGPDGADMKAFRRLLDSREDIWFKATCPDRLDPAGPPWDDFARSVAPLVADYADRVIWGTDWPHPNMQDAIPDDGLVVDMIPRIAPTPELQHKMLVTNPMRLYWSEEM below 90 µM?
false (0)
